Measured Target: Kv1.3 potassium channel of human T lymphocytes (human, UniProt P22001)
Test Method Notes: 125I-ChTX displacement, Jurkat T lymphocytes
Observable: pIC50
A value of pIC50 is the negative decimal logarithm of a concentration given in moles per litre.

// worked examples, pIC50 included
Binder	pIC50
RSCIDTIPQSRCTAFQCKHSMKYRLSFCRKTCGTC [ShK K9Q]	9.51
RSCIDTIPKSRCTAFQCKHSMKYRLSFCRKTCGTC [ShK toxin (synthetic, wild type)]	10.40

### Prompt Given SSCIDTIPKSRCTAFQCKHSMKYRLSFCRKTCGTC [ShK R1S] , state its recorded pIC50.
### Response 10.30
